I'd be grateful if you could share measured kcat/Km for these entries.
- Substrate: N[C@@H](Cc1ccccc1)C(=O)O
- method description: purified protein
- Type: biochemical, Escherichia coli
- condition info: co-substrate α-ketoglutarate (fixed, 0.1563–1.25 mM range), 16 µM PLP, 5 mM NAD+, 100 mM potassium phosphate pH 8, 37 °C
State the value with its unit after it.

**Query** Endpoint output: kcat/Km of E. coli aspartate aminotransferase (AAT) (Escherichia coli K-12; K37F/N64T/T43I) (protein, full-length, N-terminal His-tag, expressed in E. coli BL21-Gold (DE3), Ni-NTA purified; 90 kDa homodimer, PLP-dependent) MFENITAAPADPILGLADLFRADERPGKINLGIGVYFDETGKIPVLTSVKKAEQYLLENETTKTYLGIDGIPEFGRCTQELLFGKGSALINDKRARTAQTPGGTGALRVAADFLAKNTSVKRVWVSNPSWPNHKSVFNSAGLEVREYAYYDAENHTLDFDALINSLNEAQAGDVVLFHGCCHNPTGIDPTLEQWQTLAQLSVEKGWLPLFDFAYQGFARGLEEDAEGLRAFAAMHKELIVASSYSKNFGLYNERVGACTLVAADSETVDRAFSQMKAAIRANYSNPPAHGASVVATILSNDALRAIWEQELTDMRQRIQRMRQLFVNTLQEKGANRDFSFIIKQNGMFSFSGLTKEQVLRLREEFGVYAVASGRVNVAGMTPDNMAPLCEAIVAVL . Value?
**Result** 25000 M⁻¹ s⁻¹

**Query** Fill in: kcat/Km of E. coli aspartate aminotransferase (AAT) (Escherichia coli K-12; K37I/N64S/T43F/V35A) (protein, full-length, N-terminal His-tag, expressed in E. coli BL21-Gold (DE3), Ni-NTA purified; 90 kDa homodimer, PLP-dependent) MFENITAAPADPILGLADLFRADERPGKINLGIGAYIDETGKFPVLTSVKKAEQYLLENETTKSYLGIDGIPEFGRCTQELLFGKGSALINDKRARTAQTPGGTGALRVAADFLAKNTSVKRVWVSNPSWPNHKSVFNSAGLEVREYAYYDAENHTLDFDALINSLNEAQAGDVVLFHGCCHNPTGIDPTLEQWQTLAQLSVEKGWLPLFDFAYQGFARGLEEDAEGLRAFAAMHKELIVASSYSKNFGLYNERVGACTLVAADSETVDRAFSQMKAAIRANYSNPPAHGASVVATILSNDALRAIWEQELTDMRQRIQRMRQLFVNTLQEKGANRDFSFIIKQNGMFSFSGLTKEQVLRLREEFGVYAVASGRVNVAGMTPDNMAPLCEAIVAVL is ___
**Result** 210 M⁻¹ s⁻¹

**Query** kcat/Km lookup needed for E. coli aspartate aminotransferase (AAT) (Escherichia coli K-12; K37F/N64S/T43C) (protein, full-length, N-terminal His-tag, expressed in E. coli BL21-Gold (DE3), Ni-NTA purified; 90 kDa homodimer, PLP-dependent) MFENITAAPADPILGLADLFRADERPGKINLGIGVYFDETGKCPVLTSVKKAEQYLLENETTKSYLGIDGIPEFGRCTQELLFGKGSALINDKRARTAQTPGGTGALRVAADFLAKNTSVKRVWVSNPSWPNHKSVFNSAGLEVREYAYYDAENHTLDFDALINSLNEAQAGDVVLFHGCCHNPTGIDPTLEQWQTLAQLSVEKGWLPLFDFAYQGFARGLEEDAEGLRAFAAMHKELIVASSYSKNFGLYNERVGACTLVAADSETVDRAFSQMKAAIRANYSNPPAHGASVVATILSNDALRAIWEQELTDMRQRIQRMRQLFVNTLQEKGANRDFSFIIKQNGMFSFSGLTKEQVLRLREEFGVYAVASGRVNVAGMTPDNMAPLCEAIVAVL , thanks.
**Result** 7200 M⁻¹ s⁻¹

These data points were gathered from paper PMC10539519.
